Tested on: SW-620 colon
Experiment: NCI tumour cell line growth inhibition, 48 h
This listing pairs compounds with measured TGI.

Answered cases to consult:
| record_smiles | TGI |
| --- | --- |
| Nc1nccc2c1ccn2-c1cccc(NC(=O)c2ccc(N3CCOCC3)c(C(F)(F)F)c2)c1 | > 50 µM |
| COc1ccc(/C=N\NC(=O)c2ccc3nc(-c4ccc(Cl)cc4)[nH]c3c2)cc1 | 5.58 µM |
| CCCCCCCCCCC[C@@H](C[C@H]1OC(=O)[C@H]1CCCCCC)OC(=O)[C@@H](CC(C)C)NC=O | 94.1 µM |
| Cc1ccc(C#CS(=O)(=O)C(F)(F)F)cc1 | > 100 µM |

The record that follows has no TGI shown yet.
Enquiry: Consider the compound `O=C(NNS(=O)(=O)c1ccccc1)c1csc(NC(=S)NC2CCCCC2)n1` and give its recorded TGI.
Return: 72.9 µM
